Biological target: Mycobacterium thermoresistible (Mtr) LpqY (Mycolicibacterium thermoresistibile)
Format: binding
Details: single dose MST screen against LpqY
Each entry gets No if its Pathogen Box screen signal/noise ratio stays under 0.8, and Yes if its Pathogen Box screen signal/noise ratio is 0.8 or above.

Problem: Record Cc1ccc2nc(Cl)c(CNCc3cccs3)cc2c1 ; criterion: Pathogen Box screen signal/noise ratio no lower than 0.8. Met?
Solution: No

Problem: Record CC(=O)N(CCN(C(=O)c1ccc(F)cc1)c1ccccc1)c1ccccc1 ; criterion: Pathogen Box screen signal/noise ratio no lower than 0.8. Met?
Solution: No

Problem: Record Cc1cc(Cl)ccc1NC(=O)CCc1ccc(S(=O)(=O)NCC(C)C)cc1 ; criterion: Pathogen Box screen signal/noise ratio no lower than 0.8. Met?
Solution: Yes

Problem: Record c1ccc(-c2nc(NC3CCCCC3)cc(C3CC3)n2)nc1 ; criterion: Pathogen Box screen signal/noise ratio no lower than 0.8. Met?
Solution: No

Problem: Record C[C@H](C(N)=O)N1CCCC[C@@H]1c1ccc(OCc2cccc(F)c2)cc1 ; criterion: Pathogen Box screen signal/noise ratio no lower than 0.8. Met?
Solution: Yes

Problem: Record CC(C)(C)OC(=O)N1CCC(Cn2nc(-c3cnc4ccccc4c3)c3c(N)ncnc32)CC1 ; criterion: Pathogen Box screen signal/noise ratio no lower than 0.8. Met?
Solution: No

Problem: Record Cc1nn(C)cc1C(C)Nc1nncc(-c2ccc(C(F)(F)F)cc2)n1 (stereo not drawn) ; criterion: Pathogen Box screen signal/noise ratio no lower than 0.8. Met?
Solution: No

Problem: Record O=C(NC1=NCCS1)c1sc2cc(F)ccc2c1Cl ; criterion: Pathogen Box screen signal/noise ratio no lower than 0.8. Met?
Solution: Yes

Problem: Record COc1cncc(-c2cncc(N3CCN(c4ccncc4)CC3)n2)c1 ; criterion: Pathogen Box screen signal/noise ratio no lower than 0.8. Met?
Solution: Yes

Problem: Record COc1ccc(S(=O)(=O)Nc2ccc(CN3CCN(C(=O)c4cccc(C#N)c4)CC3)cc2)cc1 ; criterion: Pathogen Box screen signal/noise ratio no lower than 0.8. Met?
Solution: No

Problem: Record CCOc1ccc(-c2nc(CNCCc3ccc(F)cc3)cs2)cc1 ; criterion: Pathogen Box screen signal/noise ratio no lower than 0.8. Met?
Solution: No

Problem: Record CC[C@@H]([C@H](C)O)n1ncn(-c2ccc(N3CCN(c4ccc(OC[C@@H]5CO[C@@](Cn6cncn6)(c6ccc(F)cc6F)C5)cc4)CC3)cc2)c1=O ; criterion: Pathogen Box screen signal/noise ratio no lower than 0.8. Met?
Solution: Yes

Problem: Record CS(=O)(=O)c1ccc(C(=O)N(CC2CCCO2)c2nc3ccccc3s2)cc1[N+](=O)[O-] (stereo not drawn) ; criterion: Pathogen Box screen signal/noise ratio no lower than 0.8. Met?
Solution: No

Problem: Record NC(=O)c1cc(Br)ccc1OCCOc1ccccc1 ; criterion: Pathogen Box screen signal/noise ratio no lower than 0.8. Met?
Solution: No

Problem: Record O=C(NCc1ccco1)N1CCN(Cc2ccc(Cl)s2)CC1 ; criterion: Pathogen Box screen signal/noise ratio no lower than 0.8. Met?
Solution: No

---

Exercise: for every item that follows, state its recorded Pathogen Box screen signal/noise ratio.
Target: Mycobacterium thermoresistible (Mtr) LpqY (Mycolicibacterium thermoresistibile, UniProt G7CES0)
Sequence (G7CES0 29-471): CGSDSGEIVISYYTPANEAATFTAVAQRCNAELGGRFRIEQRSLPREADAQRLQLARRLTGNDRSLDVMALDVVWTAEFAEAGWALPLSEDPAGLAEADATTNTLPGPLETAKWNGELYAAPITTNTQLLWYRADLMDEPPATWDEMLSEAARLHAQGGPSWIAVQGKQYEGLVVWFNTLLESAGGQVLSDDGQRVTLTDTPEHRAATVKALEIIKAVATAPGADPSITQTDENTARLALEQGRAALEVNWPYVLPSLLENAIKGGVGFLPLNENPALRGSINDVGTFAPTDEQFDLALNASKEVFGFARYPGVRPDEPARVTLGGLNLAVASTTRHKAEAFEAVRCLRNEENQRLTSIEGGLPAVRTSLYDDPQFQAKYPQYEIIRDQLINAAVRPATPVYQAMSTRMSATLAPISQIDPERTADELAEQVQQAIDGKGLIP
Format: binding
Details: single dose MST screen against LpqY

Problem: Form field: reported Pathogen Box screen signal/noise ratio of COc1ccc(-c2cnc3cnc(-c4cccc(OC(C)C)c4)cn23)cc1 [MMV688270]
Solution: 0.0179

Problem: Form field: reported Pathogen Box screen signal/noise ratio of COc1ccc(N(CCc2cccc(C)n2)C(=O)C2CCCCC2)cc1 [MMV675996]
Solution: 6.0

Problem: Form field: reported Pathogen Box screen signal/noise ratio of CC(C)n1nc(-c2cc3c(Cl)cccc3[nH]2)c2c(N)ncnc21 [MMV688417]
Solution: 1.3

Problem: Form field: reported Pathogen Box screen signal/noise ratio of O=C(NC1CC1)c1ccc(N2CCC(Cc3ccccc3)CC2)nc1 [MMV024397]
Solution: 0.8

Problem: Form field: reported Pathogen Box screen signal/noise ratio of c1ccc(Oc2ccc(-c3cc(C4CCOCC4)[nH]n3)cc2)cc1 [MMV687762]
Solution: 0.6
